Every entry's value here was drawn from PubChem BioAssay (EPA / NIEHS).

Read-out: Tumor necrosis factor (Homo sapiens) (UniProt P01375)
Sequence (P01375 whole entry, looked up): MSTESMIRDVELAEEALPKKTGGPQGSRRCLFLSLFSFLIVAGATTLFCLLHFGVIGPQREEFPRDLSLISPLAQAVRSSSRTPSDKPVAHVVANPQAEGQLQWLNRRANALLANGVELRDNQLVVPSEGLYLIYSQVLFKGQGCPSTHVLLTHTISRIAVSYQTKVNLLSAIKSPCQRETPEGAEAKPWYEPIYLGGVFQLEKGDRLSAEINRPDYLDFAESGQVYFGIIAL
assay summary: BSK_LPS_TNFa: BioMAP Diversity Plus: LPS Assay for Tumour Necrosis Factor alpha (TNFa) Biomarker Activity (AID 2283085)
experimental setup: primary human HUVEC with PBMC; actives raise or lower the signal
Active and inactive are the calls of the source. How the source made its calls: active means hit-call score of the fitted dose curve at least 0.9, where 1 is the maximum; inactive means score below 0.9.
The categories you may choose from are t = active, f = inactive

Worked set:
| molecule | qualitative label |
| --- | --- |
| COc1cccc(O)c1 | f |
| COC1=CC(=O)C[C@@H](C)[C@]12Oc1c(Cl)c(OC)cc(OC)c1C2=O | f |
| O=C(NCc1ncc(C(F)(F)F)cc1Cl)c1c(Cl)cccc1Cl | f |

INPUT: Field: outcome | Entry: COc1cc(OC)nc(NC(=O)NS(=O)(=O)Nc2ccccc2C(=O)N(C)C)n1
OUTPUT: f

INPUT: Identify the outcome logged in this assay for the molecule shown: CCCCCCCCCCCCCCC
OUTPUT: f

INPUT: Hey, what did the test say about CC(=O)Nc1ccc(O)cc1 ?
OUTPUT: f

INPUT: What call does the record list for CCCCC=O ?
OUTPUT: f

INPUT: What outcome does the record of this test show for Cc1ccc(N=Nc2c(O)ccc3ccccc23)c(C)c1 ?
OUTPUT: f

INPUT: Recorded test outcome, item Cc1ccc(C(=O)c2ccccc2)cc1
OUTPUT: f

INPUT: What was the test verdict on CC[N+](CC)(CC)Cc1ccccc1 ?
OUTPUT: f

INPUT: What did the test return for CCCCc1oc2ccccc2c1C(=O)c1cc(I)c(OCCN(CC)CC)c(I)c1 ?
OUTPUT: t

INPUT: Which result was noted for this molecule in the test: Oc1ccc(Cc2ccccc2O)cc1
OUTPUT: f

INPUT: Lab log entry: C=CC(C)(CCC=C(C)C)OC(C)=O (stereo not drawn) — outcome as called in the assay?
OUTPUT: f

* * *

Read-out: Macrophage colony-stimulating factor (MCSF), CSF1 (gene 1435)
assay summary: BSK_LPS_MCSF: BioMAP Diversity Plus: LPS Assay for Macrophage colony-stimulating factor (MCSF) Biomarker Activity (AID 2283083)
experimental setup: primary human HUVEC with PBMC; actives raise or lower the signal
Activity calls are given as the source filed them. The calls were made as follows: active = hit-call score of the fitted dose curve at least 0.9, where 1 is the maximum; inactive = score below 0.9.
Outcome (select one): 1 for active, -1 for inactive

Before answering, review these 10 worked examples.
| compound | qualitative label |
| --- | --- |
| CCCCC=O | -1 |
| CCCCc1oc2ccccc2c1C(=O)c1cc(I)c(OCCN(CC)CC)c(I)c1 | 1 |
| O=C(NO)c1ccccc1 | -1 |
| CCCCC(CC)C(=O)OCCOCCOCCOCCOC(=O)C(CC)CCCC (stereo unspecified) | 1 |
| CCCCCc1ccc(O)cc1 | 1 |
| Oc1cc2ccccc2cc1O | -1 |
| O=C1OC2(c3ccccc31)c1cc(I)c(O)c(I)c1Oc1c2cc(I)c(O)c1I | 1 |
| O=C(O)CCC(F)(F)C(F)(F)C(F)(F)C(F)(F)C(F)(F)C(F)(F)F | -1 |
| Oc1c(Cl)cc(Cl)cc1Sc1cc(Cl)cc(Cl)c1O | 1 |
| Cc1ccc(C(=O)c2ccccc2)cc1 | -1 |

INPUT: Please let me know the test result on file for O=C(NCc1ncc(C(F)(F)F)cc1Cl)c1c(Cl)cccc1Cl .
OUTPUT: -1

INPUT: So what was the verdict on CCCCCCCCCCCCCCCCCC[N+](C)(C)Cc1ccccc1 in this test?
OUTPUT: 1

INPUT: # outcome recorded in this test, key = CCCCCCCCCCCC
OUTPUT: -1

INPUT: What call does the record list for OCC(CO)(CBr)CBr ?
OUTPUT: -1

INPUT: How was CN(CCO)S(=O)(=O)C(F)(F)C(F)(F)C(F)(F)C(F)(F)C(F)(F)C(F)(F)C(F)(F)C(F)(F)F classified in this test?
OUTPUT: -1

INPUT: So what was the verdict on CC[N+](CC)(CC)Cc1ccccc1 in this test?
OUTPUT: -1

INPUT: Call for entry COC1=CC(=O)C[C@@H](C)[C@]12Oc1c(Cl)c(OC)cc(OC)c1C2=O :
OUTPUT: -1

INPUT: Which outcome was assigned to COCN(COC)c1nc(N(COC)COC)nc(N(COC)COC)n1 in this test?
OUTPUT: -1

INPUT: Which outcome did this test record for the compound CS(=O)(=O)c1ccc([C@@H](CC2CCCC2)C(=O)Nc2cnccn2)cc1Cl ?
OUTPUT: -1

INPUT: Dear all, I need the recorded test outcome for O=C(c1ccccc1)c1ccccc1 , thank you.
OUTPUT: -1

INPUT: # lookup: test call for CCCCC(CC)C(=O)O (stereo unspecified)
OUTPUT: -1

* * *

assay summary: BSK_4H_Eotaxin3: BioMAP Diversity Plus: 4H Assay for Eotaxin 3 Biomarker Activity (AID 2283000);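 on outcome: CCL26 protein level quantified by ELISA in parallel with SRB cytotoxicity check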
experimental setup: primary human endothelial cells (HUVEC); actives raise or lower the signal
The source made the active and inactive calls. The calls were made as follows: active = hit-call score of the fitted dose curve at least 0.9, where 1 is the maximum; inactive = score below 0.9.
outcome measure: AC50

Some molecules with recorded AC50:
| molecular string | AC50 |
| --- | --- |
| CN(C)CCOC(c1ccccc1)c1ccccc1 | inactive |
| Cc1[nH]nc2c1N=C(c1ccccc1Cl)c1cc([N+](=O)[O-])ccc1N2 | 1.4 µM (active) |
| COC1=CC(=O)C[C@@H](C)[C@]12Oc1c(Cl)c(OC)cc(OC)c1C2=O | inactive |
| CS(=O)(=O)c1ccc([C@@H](CC2CCCC2)C(=O)Nc2cnccn2)cc1Cl | inactive |
| O=C(NCc1ncc(C(F)(F)F)cc1Cl)c1c(Cl)cccc1Cl | inactive |

Please turn your attention to the following entry.
Form field AC50, entry O=C(O)CCC(F)(F)C(F)(F)C(F)(F)C(F)(F)C(F)(F)C(F)(F)F : inactive

* * *

assay summary: CCTE_Harrill_HTTr_Apoptosis_MCF7: CCTE's 6-hour Apoptosis Assessment for the High-Throughput Transcriptomics (HTTr) Platform, in MCF-7 cells cultured in DMEM + 10% fetal bovine serum, Harrill Lab (AID 2284011)
Calls of active or inactive are those of the source. The calls were made as follows: active = hit-call score of the fitted dose curve at least 0.9, where 1 is the maximum; inactive = score below 0.9.
Parameter call: string, one of active, inactive

Recorded results for 5 molecules are shown here.
| molecule | qualitative label |
| --- | --- |
| CCCCCCCCCCCCCCC | inactive |
| CC(C)[C@@H]1CC[C@@H](C)C[C@H]1O | inactive |
| CCCCCCCCCCCC(=O)O | inactive |
| CCCCCC(C)OC(=O)COc1ccc(Cl)c2cccnc12 (stereo not drawn) | inactive |
| CS(=O)(=O)c1ccc([C@@H](CC2CCCC2)C(=O)Nc2cnccn2)cc1Cl | inactive |

INPUT: Assay outcome for C=C(c1ccc(C(=O)O)cc1)c1cc2c(cc1C)C(C)(C)CCC2(C)C : what was it?
OUTPUT: inactive

INPUT: Kindly provide the recorded test outcome for the following molecule: CCCCCCCCCCCC[N+](C)(C)Cc1ccccc1
OUTPUT: active

INPUT: Record request — test call for O=C(CCCN1CCC(O)(c2ccc(Cl)cc2)CC1)c1ccc(F)cc1
OUTPUT: inactive

* * *

assay summary: CCTE_Shafer_MEA_acute_firing_rate_mean: CCTE's Neural Acute Assay for Mean Firing Rate, Shafer Lab (AID 2284009);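 further: analyzed for loss of signal so actives lower firing rate relative to DMSO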
Active and inactive are the calls of the source. How the source made its calls: active means hit-call score of the fitted dose curve at least 0.9, where 1 is the maximum; inactive means score below 0.9.
Respond using exactly one of the listed classes: label 1 (active), label 0 (inactive)

| molecular string | qualitative label |
| --- | --- |
| Oc1c(Cl)cc(Cl)cc1Sc1cc(Cl)cc(Cl)c1O | label 0 |

INPUT: Answer briefly: the call reported for Oc1ccc(Cc2ccccc2O)cc1 in this assay.
OUTPUT: label 1

INPUT: In this assay, the call recorded for OCC(CO)(CBr)CBr was what?
OUTPUT: label 0

* * *

assay summary: ATG_PBREM_CIS: Attagene CIS-FACTORIAL HepG2 Assay for human Phenobarbital-responsive Enhancer Module (PBREM) (AID 2282955)
experimental setup: HepG2 PBREM cis-reporter, Attagene multiplexed transcription; actives raise or lower the signal
Calls of active or inactive are those of the source. How the source made its calls: active means hit-call score of the fitted dose curve at least 0.9, where 1 is the maximum; inactive means score below 0.9.

| compound | outcome |
| --- | --- |
| CC1CCC(CO)CC1 (stereo not drawn) | inactive |
| FC(F)(F)C(F)(F)C(F)(F)Br | inactive |
| c1cc[nH]c1 | inactive |

* * *

assay summary: ATG_BRE_CIS: Attagene CIS-FACTORIAL HepG2 Assay for human Bone Morphogenetic Protein (BMP) Response Element (BRE) (AID 2282933)
experimental setup: HepG2 BMP response element reporter, Attagene transcription factor profiling; actives raise or lower the signal
Active and inactive are the calls of the source. How the source made its calls: active means hit-call score of the fitted dose curve at least 0.9, where 1 is the maximum; inactive means score below 0.9.
Response enum: active, inactive

As a guide, the following entries are already answered.
| compound | qualitative label |
| --- | --- |
| Cc1cncc(C)c1 | inactive |
| COCN(COC)c1nc(N(COC)COC)nc(N(COC)COC)n1 | inactive |
| CCc1cccc(CC)c1N(COC)C(=O)CS(=O)(=O)O | inactive |
| CN(C)CCOC(c1ccccc1)c1ccccc1 | inactive |
| CCCCCCCC(OC)OC | inactive |

INPUT: Hello, I am checking results. What call was entered for c1cc2cccc3c4cccc5cccc(c(c1)c23)c54 ?
OUTPUT: inactive

INPUT: Please state the recorded outcome for this compound: c1ccc(CNc2ncnc3c2ncn3C2CCCCO2)cc1 (configuration not stated)
OUTPUT: inactive

INPUT: Per the records of this test, what outcome belongs to COc1ccc(C#N)cc1 ?
OUTPUT: inactive

INPUT: Please state the recorded outcome for this compound: CC1CNCC(C)O1 (configuration not stated)
OUTPUT: inactive

INPUT: What classification did CCC1CO1 (configuration not stated) end up with in this test?
OUTPUT: inactive

INPUT: Which outcome was assigned to c1cnc2c(c1)ccc1cccnc12 in this test?
OUTPUT: inactive

INPUT: What was the test verdict on Cc1cc(Cc2cc(C)cc(C(C)(C)C)c2O)c(O)c(C(C)(C)C)c1 ?
OUTPUT: inactive

INPUT: What outcome does the record of this test show for CS(=O)(=O)c1ccc([C@@H](CC2CCCC2)C(=O)Nc2cnccn2)cc1Cl ?
OUTPUT: active

INPUT: Any idea what this test logged for O=C(CCCN1CCC(O)(c2ccc(Cl)cc2)CC1)c1ccc(F)cc1 ?
OUTPUT: inactive

INPUT: // param item: CCCCCCc1ccc(N)cc1 ; yields the recorded call
OUTPUT: inactive

INPUT: Assay outcome for Brc1cc(Br)c(Oc2c(Br)cc(Br)c(Br)c2Br)cc1Br : what was it?
OUTPUT: inactive

INPUT: Which outcome was entered for the compound O=C1C=CC(=O)N1c1cccc(N2C(=O)C=CC2=O)c1 in this test?
OUTPUT: inactive
